# system_name: T1, hFc-human LIGHT (human)
# T1 construct: also called hFc-huLIGHT
# test: competition ELISA, LTβR-His coated, hFc-huLIGHT added
Exercise: state measured IC50 for each of the binders provided.
Param answer (str): number followed by unit.

Completed entries (count: 2):
binder	IC50
hum_LT-m85-1 (antibody, human IgG4, V domains shown, humanized from LT-m85) VH: QVQLVQSGAEVKKPGASVKVSCKASGYTFTSYNVHWVRQAPGQGLEWIGAVYPGNGDTSYNQKFKGRATLTADKSTSTVYMELSSLRSEDTAVYYCARGSYYYTSSYFDHWGQGTLVTVSS VL: EIVLTQSPATLSVSPGERATLSCKASQSVDFDGDSYMNWYQQKPGQPPRLLIYTASNLESGIPARFSGSGSGTEFTLTISSLQSEDFAVYYCQQSYEDPFTFGQGTKLEIK	0.274 nM
hum_LT-m85-5 (antibody, human IgG4, V domains shown, humanized from LT-m85) VH: QVQLVQSGAEVKKPGASVKVSCKASGYTFTSYNVHWVRQAPGQGLEWIGAVYPGNGDTSYNQKFKGRATLTADKSTSTAYMELSSLRSEDTAVYYCARGSYYYTSSYFDHWGQGTLVTVSS VL: DIVLTQSPDSLAVSLGERATINCKASQSVDFDGDSYMNWYQQKPGQPPKLLIYTASNLESGIPDRFSGSGSGTDFTLTISSLQAEDVAVYYCQQSYEDPFTFGQGTKVEIK	0.174 nM

Input line: Can you share its IC50? I mean this binder: hum_LT-m85-9 (antibody, human IgG4, V domains shown, humanized from LT-m85) VH: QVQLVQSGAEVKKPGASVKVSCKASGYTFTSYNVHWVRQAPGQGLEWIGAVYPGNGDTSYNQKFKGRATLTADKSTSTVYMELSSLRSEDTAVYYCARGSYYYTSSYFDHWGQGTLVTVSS VL: DIVMTQSPDSLAVSLGERATINCKASQSVDFDGDSYMNWYQQKPGQPPKLLIYTASNLESGVPDRFSGSGSGTDFTLTISSLQAEDVAVYYCQQSYEDPFTFGQGTKVEIK
Output line: 0.204 nM
